All values here come from the supplement of paper PMC10849652.

A collection of compounds and their measured log2 fold change
target entity: ZC3H18 (UniProt Q86VM9)
Sequence (Q86VM9 whole entry, looked up): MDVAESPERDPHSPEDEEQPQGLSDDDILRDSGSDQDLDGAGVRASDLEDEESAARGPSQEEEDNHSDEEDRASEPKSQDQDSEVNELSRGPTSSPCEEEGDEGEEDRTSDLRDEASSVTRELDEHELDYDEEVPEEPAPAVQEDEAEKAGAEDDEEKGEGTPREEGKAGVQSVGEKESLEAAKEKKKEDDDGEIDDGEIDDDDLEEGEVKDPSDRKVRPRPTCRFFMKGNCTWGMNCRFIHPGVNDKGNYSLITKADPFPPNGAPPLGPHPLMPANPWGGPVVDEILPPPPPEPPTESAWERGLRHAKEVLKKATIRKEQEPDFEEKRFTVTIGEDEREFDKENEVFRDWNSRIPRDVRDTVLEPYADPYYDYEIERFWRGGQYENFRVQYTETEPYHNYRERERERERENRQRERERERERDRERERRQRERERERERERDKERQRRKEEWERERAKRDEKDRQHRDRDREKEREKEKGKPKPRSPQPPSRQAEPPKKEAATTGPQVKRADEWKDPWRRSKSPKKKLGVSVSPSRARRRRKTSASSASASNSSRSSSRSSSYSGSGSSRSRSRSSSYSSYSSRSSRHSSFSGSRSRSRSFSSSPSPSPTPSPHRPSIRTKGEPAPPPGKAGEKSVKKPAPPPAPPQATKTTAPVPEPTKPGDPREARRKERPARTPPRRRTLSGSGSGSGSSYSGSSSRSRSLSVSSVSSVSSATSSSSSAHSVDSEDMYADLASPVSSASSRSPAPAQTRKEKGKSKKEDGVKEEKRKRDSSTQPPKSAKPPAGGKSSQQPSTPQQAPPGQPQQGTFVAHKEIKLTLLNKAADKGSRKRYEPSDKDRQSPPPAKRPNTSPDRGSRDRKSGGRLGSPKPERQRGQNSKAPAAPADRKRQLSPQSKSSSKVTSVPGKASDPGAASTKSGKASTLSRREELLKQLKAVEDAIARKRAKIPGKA
measurement description: log2 fold change, soluble protein after heating vs DMSO (PISA); higher = thermal stabilisation; K562 cells, 10 uM, 30 min; active = over 0.2 and 3.5 SD of the protein, either way, in both replicates (recomputed)
The full data set covers some 7,900 targets. This sample favours those with a hit. About 0.6% of all pairs of compound and target were hits.

# compound, target entity, log2 fold change
data = [
    ("O=C(CCCCCCNC(=O)c1cnc(N(c2ccccc2)c2ccccc2Cl)nc1)NO [citarinostat]", "ZC3H18 (UniProt Q86VM9)", 0.028),
    ("COc1cc(C(=O)O)ccc1NC(=O)[C@@H]1N[C@@H](CC(C)(C)C)[C@](C#N)(c2ccc(Cl)cc2F)[C@H]1c1cccc(Cl)c1F [idasanutlin]", "ZC3H18 (UniProt Q86VM9)", 0.23),
    ("CCCCN(Cc1ccc(C(=O)NO)cc1)C(=O)Nc1ccccc1 [Nexturastat A]", "ZC3H18 (UniProt Q86VM9)", 0.11),
    ("Fc1ccc(Cl)cc1-c1nc(Nc2ccncc2)c2nccnc2n1", "ZC3H18 (UniProt Q86VM9)", -0.134),
]
